tested on: OVCAR-8 ovarian; assay: NCI-60 one-dose screen, 48 h (100 = growth as untreated, 0 = no growth, -100 = all killed); settings: 10 µM unless noted
About 83,000 compounds went through this panel and 20% of them were active in at least one assay; those are over-represented in the sample as a whole.
Readings of growth for the listed compounds
# number only, unit % dropped from output

1) CSCCC(NC(=O)c1ccccc1)C(=O)N/N=C1\S/C(=C/c2ccc(Cl)cc2)C(=O)N1C (centres undefined) = 71.1
2) C[C@H]1[C@H](C)CC[C@]2(C(=O)O)CC[C@]3(C)C(=CC[C@@H]4[C@@]5(C)C[C@@H](Cc6cn([C@@H]7O[C@H](CO)[C@@H](O)[C@H](O)[C@H]7O)nn6)[C@H](O)C(C)(C)[C@@H]5CC[C@]43C)[C@H]12 = 97.8
3) CC(=O)N(Cc1ccccc1)c1nc2ccc(O)c(CN(C)C)c2s1 = 103
4) Cc1c(Cl)cccc1C(=O)Nc1nc2c(s1)CN(C(=O)Nc1cccc(C(F)(F)F)c1)CC2 = 14.8
5) CC(C)(CO)N(CCO)CCO = 110

## Task Data request, read-out growth, for Cc1ccccc1CNc1c2ccccc2nc2ccccc12
## Result 21

## Task How about this compound: CN1CCN(c2ccc3c(c2)nc(NNC(=O)c2cnccn2)c2cccn23)CC1
## Result 20.9

## Task Query Cc1ccc(S(=O)(=O)n2cc(C3C(Cl)C(=O)N3c3ccc(N4CCOCC4=O)cc3)c3ccccc32)cc1 (centres undefined) next
## Result 55.5

## Task Do the same for Clc1nccc2c(-c3csc(-c4c[nH]c5ccccc45)n3)c[nH]c12 please
## Result 56.5
